# Test system: brains, heart, liver, muscle, and DRG of the NHPs
# testDescription: Maturation of TTM-001 and TTM-002 capsids, NGS enrichment in NHP tissues
# Format: in vivo
# experimentalParameters: NHP heart; NGS; relative to AAV9 control
assayReadout: Fold Enrichment relative to AAV9, Heart (NHP) (fold)
Hi! Could you send only the number? It should be in fold, unit omitted.

Example cases with answers are listed next.
entrySequence	result
KTINGSGSPHSFWSNQQT	0.000
KTINGSGSPHSKARISQT	0.000

Task: Consider the sequence KTINGSGSPHSYAFNQQT and give its measured Fold Enrichment relative to AAV9, Heart (NHP).
Output: 0.000

Task: Would you mind doing KTINSCFSPHSKAQNQQT as well?
Output: 0.000

Task: Do the same for KTINGSGSPHPSCQNQQT please
Output: 0.000

Task: Quick one: KTINGSGSPHSYTRNQQT
Output: 0.000

Task: // repeat for KTINGSGSPHSKAFSWQT and report
Output: 0.000

Task: Next sequence: KTINGSGSPHPFVQNQQT
Output: 0.000

Task: Another sequence to look at: KTINGSGSPHFYRQNQQT
Output: 0.000

###

# Tested on: brain, spinal cord, and DRG of the NHPs
# testDescription: NGS fold enrichment of synthetic library (passage 3) in NHPs, first cross-species screen
# Assay type: in vivo, cynomolgus macaques (Macaca fascicularis)
# experimentalParameters: synthetic library passage 3, intravenous, RNA NGS, brain of NHPs, relative to wild-type AAV9
Here the recorded Fold enrichment over AAV9 in the brain of NHPs is given for each entry.
// return numeric value only (unit: fold, not printed)

entrySequence	result
GSGSVSQLGQNQQT	3.184
GSGQSREISLNQQT	1.088
GKSFVPQSGQNQQT	1.489
GSTGSHSAGQNQHT	3.717
GGVLVGGSGQNQQT	2.778

Task: Data request, read-out Fold enrichment over AAV9 in the brain of NHPs, for GSGQNVSSVHRQQT
Output: 1.045

Task: Queued: GRAVMDHSGQNQQT
Output: 2.408

Task: Next sequence: GSSHTQALGQNQQT
Output: 1.784

Task: Moving on to the next sequence: GSGGTSVHQQNQQT
Output: 1.629

Task: Would you mind doing GSGQVHQAEVNQQT as well?
Output: 1.825

Task: Ok, now GSGRLVPNGPNQQT
Output: 2.314

Task: Same lookup for GSGQNQQTLSKPWT , please.
Output: 1.743

###

# System: brain
# testDescription: Matured TTM-001 and TTM-002 variants, NGS enrichment in mouse brain
# Assay type: in vivo, mice
# experimentalParameters: mouse brain; relative to AAV9 control
Recorded Fold Enrichment relative to AAV9, Brain (Mouse) split into classes bottom range = under 70 fold, center range = from 70 fold up to 100 fold, top range = 100 fold and over

entrySequence	classAssignment
KTINGSGSPHSKAQNIII	center range
KTINGSGSPHSKNQWQQT	bottom range
KTINGSGSPHSKAQAITT	center range
KTINGSGSPHSKAQYRAT	bottom range
KEVQGSGSPHSKAQNQQT	top range
KTEPMSGSPHSKAQNQQT	top range
KTINGSGSPHSKAQAKGT	top range
KTINGSGSPHSKAQSVHT	center range

Task: State the band of KTEPTSGSPHSKAQNQQT
Output: top range

Task: KTINGSGSPHSKAQSLQI ?
Output: bottom range

Task: And for KTVNGNGSPHSKSQNQQT ?
Output: center range

Task: Then KTINGSGSPHSKAQKVIT ?
Output: center range

Each recorded value in this set is attributed to patent US20260250318A1.
